experiment: Cannabinoid and terpene content of cannabis flower before and after ozone exposure; type: physicochemical; conditions: 60 minute exposure to 200 ppm of ozone vs before
MEASUREMENT_NAME: % Change (decrease) (%)
State the answer as a number, implicitly in %.

Recorded results for 3 compounds are shown here.
CCCCCc1cc2c(c(O)c1C(=O)O)C=CC(C)(CCC=C(C)C)O2 (stereo not shown) = 0.28
C=C(C)[C@@H]1CCC(C)=C[C@H]1c1c(O)cc(CCCCC)c(C(=O)O)c1O = 5.4
CCCCCc1cc(O)c(C/C=C(\C)CCC=C(C)C)c(O)c1C(=O)O = 13.4

Consider the compound CCCCCc1cc2c(c(O)c1C(=O)O)-c1cc(C)ccc1C(C)(C)O2 and give its measured % Change (decrease). 0.04

Consider the compound CCCCCc1cc2c(c(O)c1C(=O)O)[C@@H]1C=C(C)CC[C@H]1C(C)(C)O2 and give its measured % Change (decrease). 7.1

Consider the compound CCCCCc1cc(O)c2c(c1)OC(C)(C)[C@@H]1CCC(C)=C[C@@H]21 and give its measured % Change (decrease). 9.2

Consider the compound CCCc1cc2c(c(O)c1C(=O)O)[C@@H]1C=C(C)CC[C@H]1C(C)(C)O2 and give its measured % Change (decrease). 1.2
